- target.system: recombinant human or murine heat shock protein 70 (hsp70) (human or murine), P0DMV8
- Sequence (P0DMV8 whole entry): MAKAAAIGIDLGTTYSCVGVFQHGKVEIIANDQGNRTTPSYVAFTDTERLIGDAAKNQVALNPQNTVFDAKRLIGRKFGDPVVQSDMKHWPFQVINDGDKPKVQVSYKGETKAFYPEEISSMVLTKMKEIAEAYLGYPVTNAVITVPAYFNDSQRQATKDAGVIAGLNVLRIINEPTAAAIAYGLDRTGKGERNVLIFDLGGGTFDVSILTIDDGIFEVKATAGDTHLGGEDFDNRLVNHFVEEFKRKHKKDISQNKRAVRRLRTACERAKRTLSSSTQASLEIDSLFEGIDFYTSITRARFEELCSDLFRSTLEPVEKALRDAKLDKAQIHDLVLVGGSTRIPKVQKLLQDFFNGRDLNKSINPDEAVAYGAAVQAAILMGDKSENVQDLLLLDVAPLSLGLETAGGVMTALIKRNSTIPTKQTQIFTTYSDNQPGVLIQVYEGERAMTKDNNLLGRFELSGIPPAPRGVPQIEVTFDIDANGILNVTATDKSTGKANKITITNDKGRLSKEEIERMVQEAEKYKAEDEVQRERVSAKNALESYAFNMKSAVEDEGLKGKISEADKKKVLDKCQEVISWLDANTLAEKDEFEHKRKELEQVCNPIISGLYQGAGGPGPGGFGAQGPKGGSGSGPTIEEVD
- assay.info: on hsp70
property.name: pKd
Answer as the number alone; pKd is minus log10 of concentration in mol/L.

[Q] Tell us which pKd value is on record for AFHHVAREL (modifications not checked)
[A] 4.08

[Q] Output measured pKd for this item: ALKHRAYEL (modifications not checked)
[A] 4.01

[Q] Check the records and state pKd for AIIRILQQLGSGNLLRLTGW (modifications not checked) [ALIRJ… (as printed; hybrid antigen of the Vpr: 59-67 epitope)]
[A] 6.22

[Q] Recall and state the measured pKd for RGYVYQGL (modifications not checked) [RGYVYQGL (VSV nucleoprotein amino acids 52-59)] .
[A] 4.09

[Q] Query pKd for SLFNTVATL (modifications not checked) [… (HIV Gag/p17: 77-85 (79F))]
[A] 4.46

[Q] Answer with the recorded pKd for the binder listed here: SIINFEKL (modifications not checked) [SIINFEKL (ovalbumin amino acids 257-264)]
[A] 3.63

[Q] Tell me its pKd given SLYNTVATLGSGNLLRLTGW (modifications not checked) as the entry.
[A] 5.74

[Q] Look up pKd of ILKEPVHGVGSGNLLRLTGW (modifications not checked) and report it.
[A] 5.92

[Q] Give me measured pKd, please, for this binder: VIYQYMDDLGSGNLLRLTGW (modifications not checked)
[A] 5.77

[Q] Look up and state reported pKd for AFHHVARELGSGNLLRLTGW (modifications not checked)
[A] 5.68

// data source = patent US20050202033A1
